# PROTOCOL_NOTES: CLint estimates using human liver microsomes (Method 4)
# Assay type: in vitro ADME
# EXPERIMENTAL_CONDITIONS: pH 7.4, 1 μM compound, read-out: Mics - CLint (HLM CLint)
Each item that follows carries a reported microsomal CLint at 1 μM.

Example entries begin here.
[
  {
    "CHEM_SMILES": "COc1cc(Nc2ncc3c(n2)N(C)CN(c2c(Cl)cccc2Cl)C3=O)ccc1N1CCNCC1",
    "OBSERVED_MEASUREMENT": "15 to 50 µL/min/mg"
  },
  {
    "CHEM_SMILES": "CN1CCN(c2ccc(Nc3ncc4c(n3)N(C)CN(c3c(Cl)cccc3Cl)C4=O)cc2CO)CC1",
    "OBSERVED_MEASUREMENT": "15 to 50 µL/min/mg"
  },
  {
    "CHEM_SMILES": "CNCc1cc(Nc2ncc3c(n2)N(C)CN(c2c(Cl)cccc2Cl)C3=O)ccc1Br",
    "OBSERVED_MEASUREMENT": "≤ 15 µL/min/mg"
  }
]

Consider the record given below.
Query string: // microsomal CLint at 1 μM lookup, key: C[C@@H]1CN(c2ccc(Nc3ncc4c(n3)N(C)CN(c3c(Cl)cccc3Cl)C4=O)cc2CO)C[C@H](C)N1
Result string: ≤ 15 µL/min/mg

* * *

# PROTOCOL_NOTES: CLint estimates using human liver microsomes (Method 4)
# Format: in vitro ADME
# EXPERIMENTAL_CONDITIONS: pH 7.4, 1 μM compound, read-out: Mics - CLint (HLM CLint)
Each item that follows carries a reported microsomal CLint at 1 μM.

[
  {
    "MOLECULE": "CN1CN(c2c(Cl)cccc2Cl)C(=O)c2cnc(Nc3ccc(N4CCN(C(=O)CN)CC4)cc3)nc21",
    "microsomal CLint at 1 μM": "≤ 15 µL/min/mg"
  },
  {
    "MOLECULE": "CNCc1cccc(N2CN(c3c(Cl)cccc3Cl)C(=O)c3cnc(Nc4ccc(N5CCOCC5)cc4)nc32)c1",
    "microsomal CLint at 1 μM": "≤ 15 µL/min/mg"
  }
]

Query string: // microsomal CLint at 1 μM lookup, key: CN1CCC(c2ccc(Nc3ncc4c(n3)N(C)CN(c3c(Cl)cccc3Cl)C4=O)cc2CO)CC1
Result string: ≤ 15 µL/min/mg

Query string: // microsomal CLint at 1 μM lookup, key: COC[C@H]1CN(c2ccc(Nc3ncc4c(n3)N(C)CN(c3c(Cl)cccc3Cl)C4=O)cc2C(O)C(F)F)CCN1 (single isomer, unassigned)
Result string: 15 to 50 µL/min/mg

Query string: // microsomal CLint at 1 μM lookup, key: C[C@@H]1CN(c2ccc(Nc3ncc4c(n3)N(C)CN(c3c(Cl)cccc3Cl)C4=O)cc2CN(C)C)C[C@H](C)O1
Result string: ≥ 50 µL/min/mg

Query string: // microsomal CLint at 1 μM lookup, key: C[C@@H]1CN(c2ccc(Nc3ncc4c(n3)N(C)CN(c3c(Cl)cccc3Cl)C4=O)cc2C(C)(C)O)CCN1
Result string: 15 to 50 µL/min/mg

* * *

# PROTOCOL_NOTES: CLint estimates using human liver microsomes (Method 4)
# Type: in vitro ADME
# EXPERIMENTAL_CONDITIONS: pH 7.4, 1 μM compound, read-out: Mics - CLint (HLM CLint)
Counter-ions that a name gives are not always drawn.
VALUE_TYPE: microsomal CLint at 1 μM

Example entries begin here.
[
  {
    "COMPOUND": "COC[C@@H]1CN(c2ccc(Nc3ncc4c(n3)N(C)CN(c3c(Cl)cccc3Cl)C4=O)cc2)CCN1C",
    "microsomal CLint at 1 μM": "15 to 50 µL/min/mg"
  },
  {
    "COMPOUND": "COCc1cc(Nc2ncc3c(n2)N(C)CN(c2ccccc2Cl)C3=O)ccc1N1CCNCC1",
    "microsomal CLint at 1 μM": "≤ 15 µL/min/mg"
  },
  {
    "COMPOUND": "CCN1CCN(c2ccc(Nc3ncc4c(n3)N(C)CN(c3c(Cl)cccc3Cl)C4=O)cc2CO)CC1",
    "microsomal CLint at 1 μM": "≤ 15 µL/min/mg"
  },
  {
    "COMPOUND": "CN1CN(c2c(Cl)cccc2Cl)C(=O)c2cnc(Nc3ccc(N4CCN[C@@H](CO)C4)cc3)nc21",
    "microsomal CLint at 1 μM": "≤ 15 µL/min/mg"
  },
  {
    "COMPOUND": "CN1CN(c2c(Cl)cccc2Cl)C(=O)c2cnc(Nc3ccc(N4CCN(CC(=O)O)CC4)cc3)nc21 [Example 4, hydrochloride]",
    "microsomal CLint at 1 μM": "≤ 15 µL/min/mg"
  },
  {
    "COMPOUND": "CN(C)Cc1cc(Nc2ncc3c(n2)N(C)CN(c2c(Cl)cccc2Cl)C3=O)ccc1N1CCOCC1",
    "microsomal CLint at 1 μM": "15 to 50 µL/min/mg"
  },
  {
    "COMPOUND": "CN1CN(c2c(Cl)cccc2Cl)C(=O)c2cnc(Nc3ccc(N4CCS(=O)(=O)CC4)cc3)nc21",
    "microsomal CLint at 1 μM": "15 to 50 µL/min/mg"
  },
  {
    "COMPOUND": "C[C@@H]1CN(c2ccc(Nc3ncc4c(n3)N(C)CN(c3c(Cl)cccc3Cl)C4=O)cc2OC(F)F)CCN1",
    "microsomal CLint at 1 μM": "≤ 15 µL/min/mg"
  },
  {
    "COMPOUND": "CCN1CN(c2c(Cl)cccc2Cl)C(=O)c2cnc(Nc3ccc(N4C[C@@H](C)N[C@@H](C)C4)c(CO)c3)nc21",
    "microsomal CLint at 1 μM": "15 to 50 µL/min/mg"
  },
  {
    "COMPOUND": "CC1N(C)c2nc(Nc3ccc(N4CCNCC4)cc3)ncc2C(=O)N1c1c(Cl)cccc1Cl (stereo not drawn)",
    "microsomal CLint at 1 μM": "≤ 15 µL/min/mg"
  }
]

Query string: // microsomal CLint at 1 μM lookup, key: CN1CN(c2c(Cl)cccc2Cl)C(=O)c2cnc(Nc3ccc(N4CCNC[C@H]4CO)cc3)nc21
Result string: ≤ 15 µL/min/mg

Query string: // microsomal CLint at 1 μM lookup, key: CN1CN(c2c(Cl)cccc2Cl)C(=O)c2cnc(Nc3ccc(N4CC5COCC(C4)N5)cc3)nc21
Result string: ≤ 15 µL/min/mg

Query string: // microsomal CLint at 1 μM lookup, key: CNCc1cc(Nc2ncc3c(n2)N(C)CN(c2c(Cl)cccc2Cl)C3=O)ccc1-c1ccncc1
Result string: ≤ 15 µL/min/mg

Query string: // microsomal CLint at 1 μM lookup, key: C[C@@H]1CN(c2ccc(Nc3ncc4c(n3)N(C)CN(c3c(Cl)cccc3Cl)C4=O)cc2)CCN1
Result string: ≤ 15 µL/min/mg

Query string: // microsomal CLint at 1 μM lookup, key: COC[C@H]1CN(c2ccc(Nc3ncc4c(n3)N(C)CN(c3c(Cl)cccc3Cl)C4=O)cc2)CCN1
Result string: ≤ 15 µL/min/mg

Query string: // microsomal CLint at 1 μM lookup, key: CC(C)N1CCN(c2ccc(Nc3ncc4c(n3)N(C)CN(c3c(Cl)cccc3Cl)C4=O)cc2CO)CC1
Result string: 15 to 50 µL/min/mg

Query string: // microsomal CLint at 1 μM lookup, key: CN1CN(c2c(Cl)cccc2Cl)C(=O)c2cnc(Nc3ccc(N4CCCCC4)c(CO)c3)nc21
Result string: ≥ 50 µL/min/mg

Source: patent US9850247B2
